Reference for the values: BindingDB's records for doi:10.1016/j.ejmech.2018.04.062

# SYSTEM: Potassium voltage-gated channel subfamily H member 2 (Homo sapiens)
# Sequence (Q12809 whole entry): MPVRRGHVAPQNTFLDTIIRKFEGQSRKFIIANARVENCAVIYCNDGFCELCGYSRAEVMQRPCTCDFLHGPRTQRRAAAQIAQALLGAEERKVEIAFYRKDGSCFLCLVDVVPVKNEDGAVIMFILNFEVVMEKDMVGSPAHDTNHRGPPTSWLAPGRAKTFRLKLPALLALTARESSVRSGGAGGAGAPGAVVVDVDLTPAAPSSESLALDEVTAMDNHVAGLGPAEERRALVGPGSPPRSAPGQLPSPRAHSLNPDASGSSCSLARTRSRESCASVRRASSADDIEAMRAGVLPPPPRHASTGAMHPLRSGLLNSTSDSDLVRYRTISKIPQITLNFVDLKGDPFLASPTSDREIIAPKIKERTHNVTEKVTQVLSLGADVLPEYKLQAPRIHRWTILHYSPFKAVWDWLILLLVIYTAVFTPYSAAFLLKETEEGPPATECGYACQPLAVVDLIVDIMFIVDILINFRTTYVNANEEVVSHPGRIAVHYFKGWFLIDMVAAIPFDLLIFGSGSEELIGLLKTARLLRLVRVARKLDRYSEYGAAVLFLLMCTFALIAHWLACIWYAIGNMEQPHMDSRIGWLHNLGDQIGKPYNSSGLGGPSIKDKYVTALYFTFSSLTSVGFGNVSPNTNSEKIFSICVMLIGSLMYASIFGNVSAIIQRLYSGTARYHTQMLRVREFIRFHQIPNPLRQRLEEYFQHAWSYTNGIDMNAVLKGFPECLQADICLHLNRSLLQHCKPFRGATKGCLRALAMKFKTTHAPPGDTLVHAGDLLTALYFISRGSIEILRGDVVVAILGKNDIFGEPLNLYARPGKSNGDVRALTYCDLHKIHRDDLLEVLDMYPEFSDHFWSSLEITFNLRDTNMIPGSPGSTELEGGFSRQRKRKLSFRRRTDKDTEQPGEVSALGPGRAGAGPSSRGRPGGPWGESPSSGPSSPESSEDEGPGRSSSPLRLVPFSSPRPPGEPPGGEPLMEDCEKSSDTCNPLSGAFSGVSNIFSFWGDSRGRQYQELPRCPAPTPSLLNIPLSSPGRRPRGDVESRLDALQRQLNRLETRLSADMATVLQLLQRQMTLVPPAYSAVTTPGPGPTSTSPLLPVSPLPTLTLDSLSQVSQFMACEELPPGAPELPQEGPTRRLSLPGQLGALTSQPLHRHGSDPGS
# ASSAY NAME: Inhibition of human ERG transfected in HEK293 cells assessed as reduction in channel current at -80 mV holding potential by whole-cell patch clamp method
PARAMETER MEASURED: IC50 (nM)
Please state the figure in nM; there is no need to write the unit.

Item NC[C@H](NC(=O)c1ccc(-c2ccc(C(F)(F)F)c(F)c2)[nH]1)c1nc(CO)cs1 : provide IC50
3000

###

# SYSTEM: Cytochrome P450 2C9 (Homo sapiens, UniProt P11712)
# Sequence (P11712 whole entry): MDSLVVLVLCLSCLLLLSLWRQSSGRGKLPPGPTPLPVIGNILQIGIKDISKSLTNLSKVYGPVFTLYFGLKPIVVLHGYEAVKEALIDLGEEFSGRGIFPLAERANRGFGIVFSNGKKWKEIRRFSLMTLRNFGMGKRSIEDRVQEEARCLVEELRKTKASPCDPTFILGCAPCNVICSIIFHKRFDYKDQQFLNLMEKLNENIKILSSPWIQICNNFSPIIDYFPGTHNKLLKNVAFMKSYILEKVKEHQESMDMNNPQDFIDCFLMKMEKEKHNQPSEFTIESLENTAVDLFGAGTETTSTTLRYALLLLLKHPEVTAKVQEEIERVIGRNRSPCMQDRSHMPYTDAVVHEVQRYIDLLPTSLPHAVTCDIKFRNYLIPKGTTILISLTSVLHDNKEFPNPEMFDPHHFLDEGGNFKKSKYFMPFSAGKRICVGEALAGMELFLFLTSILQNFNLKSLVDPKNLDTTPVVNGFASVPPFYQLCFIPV
# ASSAY NAME: Inhibition of human liver microsome CYP2C9 using diclofenac as substrate incubated for 20 mins by LC-MS/MS analysis
PARAMETER MEASURED: IC50

Give IC50 for the following compound: NC[C@H](NC(=O)c1ccc(-c2ccc(C(F)(F)F)c(F)c2)[nH]1)c1nc(CO)cs1
> 25 µM

###

# SYSTEM: Cytochrome P450 2D6 (Homo sapiens, UniProt P10635)
# Sequence (P10635 whole entry): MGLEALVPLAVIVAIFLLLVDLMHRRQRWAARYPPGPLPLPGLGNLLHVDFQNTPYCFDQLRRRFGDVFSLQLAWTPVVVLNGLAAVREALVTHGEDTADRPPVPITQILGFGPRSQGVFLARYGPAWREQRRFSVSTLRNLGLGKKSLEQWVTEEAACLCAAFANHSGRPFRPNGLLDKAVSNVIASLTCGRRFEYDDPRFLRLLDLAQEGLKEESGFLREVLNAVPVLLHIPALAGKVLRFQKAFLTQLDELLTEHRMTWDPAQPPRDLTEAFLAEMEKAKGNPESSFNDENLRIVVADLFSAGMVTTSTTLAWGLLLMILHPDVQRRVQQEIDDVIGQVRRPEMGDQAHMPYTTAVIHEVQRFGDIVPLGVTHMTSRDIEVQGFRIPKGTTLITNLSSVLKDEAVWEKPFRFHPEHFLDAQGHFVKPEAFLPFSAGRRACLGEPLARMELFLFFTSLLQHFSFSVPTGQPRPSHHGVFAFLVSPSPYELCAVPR
# ASSAY NAME: Inhibition of human liver microsome CYP2D6 using bufuralol as substrate incubated for 20 mins by LC-MS/MS analysis
PARAMETER MEASURED: IC50

Provide IC50 value for the following compound: NC[C@H](NC(=O)c1ccc(-c2ccc(C(F)(F)F)c(F)c2)[nH]1)c1nc(CO)cs1
> 25 µM

###

# SYSTEM: Cytochrome P450 1A2 (Homo sapiens)
# Sequence (P05177 whole entry): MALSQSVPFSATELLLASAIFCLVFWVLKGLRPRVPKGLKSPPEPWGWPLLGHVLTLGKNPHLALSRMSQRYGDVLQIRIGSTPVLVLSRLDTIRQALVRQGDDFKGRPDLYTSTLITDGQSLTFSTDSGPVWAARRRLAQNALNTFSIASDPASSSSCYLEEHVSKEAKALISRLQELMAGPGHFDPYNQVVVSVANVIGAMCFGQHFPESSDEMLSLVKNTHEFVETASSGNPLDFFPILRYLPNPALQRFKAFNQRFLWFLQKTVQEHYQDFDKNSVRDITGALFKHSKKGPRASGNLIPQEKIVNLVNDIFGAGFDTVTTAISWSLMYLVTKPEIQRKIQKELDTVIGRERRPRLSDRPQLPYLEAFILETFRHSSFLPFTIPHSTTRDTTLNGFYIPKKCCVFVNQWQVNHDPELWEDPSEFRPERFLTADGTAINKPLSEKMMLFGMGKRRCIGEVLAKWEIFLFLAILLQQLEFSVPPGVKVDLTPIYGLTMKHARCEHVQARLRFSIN
# ASSAY NAME: Inhibition of human liver microsome CYP1A2 using phenacetin as substrate incubated for 20 mins by LC-MS/MS analysis
PARAMETER MEASURED: IC50

Look up and report measured IC50 for this entry: NC[C@H](NC(=O)c1ccc(-c2ccc(C(F)(F)F)c(F)c2)[nH]1)c1nc(CO)cs1
> 25 µM
